Give growth for every item shown.
System: LOX IMVI melanoma
Test: NCI-60 one-dose screen, 48 h (100 = growth as untreated, 0 = no growth, -100 = all killed)
Conditions: 10 µM unless noted
About 83,000 compounds went through this panel and 20% of them were active in at least one assay; those are over-represented in the sample as a whole.
Number only, in %; omit the unit.

Answer with the recorded growth for the compound listed here: Nc1ccc(S(=O)(=O)c2ccc(NO)cc2)cc1
99.5

Tell us which growth value is on record for CC(=O)OCC(=O)[C@@]1(O)[C@H](C)C[C@H]2[C@@H]3C=C(C)C4=Cc5c(cnn5-c5ccc(F)cc5)C[C@]4(C)[C@H]3[C@@H](O)C[C@@]21C
1.77

Identify growth associated with the compound C=CCC(CCC(CC=C)C(=O)OCC)C(=O)OCC (stereo not given)
92.1

Dear colleague, please send me the reported growth for Cc1c(C(N)=O)sc2c1c(=O)n(Cc1ccccc1)c1nnc(S(C)(=O)=O)n21 when you can.
81.2

Please give the documented growth of CCCCN(CCC)CCCCCCCCCCN1CCCc2ccccc21
67.8

Return the recorded growth value; entry: O=C1C(Cl)=C(Nc2ccc(Nc3ccccc3)c(NC3=C(Cl)C(=O)c4ccccc4C3=O)c2)C(=O)c2ccccc21
63.3

Indicate its recorded growth; the compound in question is O=C(Nn1cnc2ccccc21)N1CCCC1
98.1

Tell me growth reported for COc1ccccc1CNCCCN1C(=O)c2ccc3c4c(ccc(c24)C1=O)C(=O)N(CCCNCc1ccccc1OC)C3=O
-63.1

Give the reported value of growth for this record: CCCOC(=O)c1c(C)n(C)c2scc[n+]12
82

Using known records, supply growth for COc1cc(N)c2nccc(C)c2c1OC
96.2

----------
System: UO-31 renal
Test: NCI-60 one-dose screen, 48 h
Settings: 10 µM unless noted
Description: Growth inhibition of the UO-31 human tumor cell line is measured as a screen for anti-cancer activity. Cells are grown in 96 well plates and exposed to the test compound for 48 hours. Compounds are tested at a single concentration, which is 10^-5 M for most compounds. The reported endpoint is percent growth (GI% or GIPRCNT), where numbers from 0 - 100% represent growth inhibition, and numbers from -100% - 0 represent cell death. For example, a value of 40 represents 60% growth inhibition. […]
Compounds without any hit were thinned out: in the full panel of roughly 83,000, 20% have a hit. Active and inactive are the calls of the source. How the source made its calls: active means growth percent below 10; inactive means the rest.
Can you answer with just one of these options? active, inactive

What did the test return for C/C(=N\Nc1ccc(Cl)cn1)c1ccccn1 ?
active

Name the outcome recorded for CCCCCCCCCC[N+](C)(C)C in the assay.
inactive

Fill in: this test's call for CC(O)C(N)=O (configuration not stated) is ___
inactive

Query: recorded result category for O=c1c2c(c3ccccc3n1-c1ccccc1)NC(=S)NC2c1ccccc1 (configuration not stated) in this test
inactive

Just curious, what result did CCCCN(CCCC)c1ccc(C(=O)O)cc1 get here?
inactive

Please state the recorded outcome for this compound: COc1ccc(-c2nc(N)n(C(=S)Nc3ccccc3)n2)cc1
inactive

Short answer needed: outcome of this test for COc1ccccc1C(=O)Nc1cccc(-c2cc(=O)c3c(OC)c(OC)c(OC)cc3o2)c1 ?
inactive

Recorded test outcome, item O=C(Nn1cnc2ccccc21)N1CCCC1
inactive

Would you mind telling me which call this test gave COC(=O)[C@H](Cc1cn(C)cn1)NC(=O)[C@@H](NC(=O)Nc1cc(C(F)(F)F)cc(C(F)(F)F)c1)C(C)(C)C ?
inactive

How was COc1ccc(Oc2[nH]n(C3=Nc4ccccc4Sc4ccccc43)c(=O)c2C#N)cc1 classified in this test?
inactive

What did the test return for CCCCCC(=C/c1ccccc1)/C=N/N=C(N)N ?
active

Call for entry O=C(Nc1ccccc1)Nc1ccc(Nc2ncnc3sc4c(c23)CCCC4)cc1 :
inactive

Recorded test outcome, item COc1ccc(C2CC(=O)c3c(O)cc(OC4OC(COC5OC(C)C(O)C(O)C5O)C(O)C(O)C4O)cc3O2)cc1O (configuration not stated)
inactive

Hello, I am checking results. What call was entered for CCOP1(=O)CC(C)=C(Cl)C(P(=O)(O)O)C1 (configuration not stated) ?
inactive

Dear all, I need the recorded test outcome for COC(=O)c1c[n+]([O-])ccc1OC , thank you.
inactive

Hi, do you know how COc1cc(Cn2ccc3c2-c2oncc2CC3)cc(OC)c1 came out in this test?
inactive

So what was the verdict on COC(=O)c1ccc(C(=Nc2ccc(N(C)C(=O)CN3CCN(C)CC3)cc2)c2c(O)[nH]c3ccc(C(=O)OC)cc23)cc1 in this test?
inactive

// param item: Cc1nnc(-c2cc3c(ccc4ccccc43)oc2=O)c2cn(-c3ccc(Cl)cc3)nc12 ; yields the recorded call
inactive

Recorded call for Oc1ccc(CN(Cc2ccc(C(F)(F)F)cc2)Cc2ccc(O)c3ncccc23)c2cccnc12 ?
active

// return assay outcome for Cc1cc2c(-c3nc4ccccc4[nH]3)c(O)c(O)cc2c(O)c1-c1c(C)cc2c(-c3nc4ccccc4[nH]3)c(O)c(O)cc2c1O
active

Identify the outcome logged in this assay for the compound shown: CCCCCCCCC(=O)Nc1ccc(O)cc1
inactive

Hi, sorry to bother you, what did the test record for COC(=O)c1cc(=O)nc(N/N=C/c2ccccc2O)s1 ?
inactive

----------
System: TK-10 renal
Assay: NCI-60 one-dose screen, 48 h
Settings: 10 µM unless noted
Compounds without any hit were thinned out: in the full panel of roughly 83,000, 20% have a hit. Active and inactive are the calls of the source. The calls were made as follows: active = growth percent below 10; inactive = the rest.
Assign a class; possible classes are True for active, False for inactive

Tell me the recorded outcome of this test for C[C@@H](c1ccc2c(c1)[nH]c1ccc(Cl)cc12)c1nc2ccc(Cl)cc2[nH]1 .
False

Any idea what this test logged for CCN(CC)CCCNc1c2ccc(Cl)cc2nc2ccc(OC)cc12 ?
True

# fetch the recorded call for CCOc1nc(-c2ccccc2)cc2c(O)c(C(=O)N/N=C/c3ccccc3O)[nH]c(=O)c12 here
False

Please indicate how the test categorized Cc1nc2ccccc2c(=O)n1-c1cccc(OCc2cn(-c3cccc(O)c3)nn2)c1 .
False

How was COc1ccc(Cn2cc3c(c2-c2ccc(OC)cc2)CCc2cnoc2-3)cc1 classified in this test?
False

Called result for O=C(O)c1ccc(Br)nc1
False

What classification did O=C(CCC(=O)N(CCO)CCO)N(CCO)CCO end up with in this test?
False

Tell me the assay call for CCOC(=O)CCCCCCCCC(=O)OCC please.
False

State the result this test recorded for CCCCCCCCCCC(C[N+](C)(C)C/C=C/c1ccccc1)C(O)c1ccccc1 (stereo unspecified) .
True

# lookup: test call for OC(c1ccccc1)(c1ccccc1)C(F)(F)F
False

Hey, what did the test say about O=C(NCCNCCO)c1cc([N+](=O)[O-])cc([N+](=O)[O-])c1O ?
False

----------
Tested on: HCT-15 colon
Assay: NCI-60 one-dose screen, 48 h (100 = growth as untreated, 0 = no growth, -100 = all killed)
Details: 10 µM unless noted
This is part of a sample that, as a whole, favours compounds with a hit. Of some 83,000 tested, about 20% had one in any assay.
So I've got a bunch of compounds here, and I need their growth values.
Express your answer in %, writing the number without its unit.

Identify measured growth corresponding to COc1ccc(C2CC(=O)c3c(O)cc(OC4OC(COC5OC(C)C(O)C(O)C5O)C(O)C(O)C4O)cc3O2)cc1O (stereo not given)
101

Entry COc1ccc(Nc2c3ccccc3nc3ccccc23)cc1 needs its growth filled in; supply it.
25.2

Give the value of growth reported for the following: Cc1nn(-c2ccccc2)c(N)c1N=C1NC(=O)/C(=C/c2ccc(Cl)cc2)S1
80.6

Recall and state the measured growth for COc1ccc(C(=O)c2no[n+]([O-])c2C(=O)c2ccc(OC)cc2)cc1 .
20.1

Retrieve growth measured for OCCN1CCCN(CCCN2c3ccccc3Sc3ccc(C(F)(F)F)cc32)CC1 and print it.
61.6

Identify measured growth associated with COc1cc(CCNc2cnc3cc(N)cc(N)c3n2)cc(OC)c1
104

Please supply the value of reported growth for the item Nc1ccc(N=Nc2ccccc2)c2cc(S(=O)(=O)O)ccc12
104

// fetch growth given entry OCCN1CCN(CC/C=C2/c3ccccc3Sc3ccc(C(F)(F)F)cc32)CC1
71.1

Give the value of growth reported for the following: O=C(/C=C/c1c[nH]c2ccccc12)c1cc2ccccc2o1
83.3

Indicate the recorded growth value for this compound: CCC1(CC)C(OC)NC(Br)=C(C#N)C1(C#N)C(N)=O (stereo not given)
114

----------
Would you kindly list growth for each of these molecules?
System: U251 CNS
Assay: NCI-60 one-dose screen, 48 h (100 = growth as untreated, 0 = no growth, -100 = all killed)
Conditions: 10 µM unless noted
About 83,000 compounds went through this panel and 20% of them were active in at least one assay; those are over-represented in the sample as a whole. Calls of active or inactive are those of the source. The calls were made as follows: active = growth percent below 10; inactive = the rest.

For the molecule Clc1ccc(N/N=C(\c2ccccc2)c2ccccn2)nc1 , report growth.
9.27% (active)

Find the measured growth of COc1ccc(-c2nc(Nc3nc4ccccc4[nH]3)nc(N)c2C#N)cc1 and report it.
110% (inactive)

Dear colleague, please send me the reported growth for CCCCCCCCCCCCCCCCCC1=NCCN1CS(=O)(=O)O when you can.
64.5% (inactive)

For CCC(C)C1NC(=O)C(CC(C)C)NC(=O)C(C)NC(=O)C(C(C)C)NC(=O)C(CCCCN)NC(=O)C(CC(C)C)NC(=O)C(C(C)C)NC(=O)[C@H](C)NC(=O)C(C(C)CC)NC(=O)C(CCCN=C(N)N)NC(=O)C(CCCCN)NC(=O)C(CCCN=C(N)N)NC(=O)C(CCCCN)NC(=O)C([C@H](C)CC)NC(=O)C(CCCCN)NC1=O (some centres undefined) , write its growth.
3.51% (active)

Note growth for the molecule shown: Cc1nn(-c2ccccc2)c(N)c1N=C1NC(=O)/C(=C/c2ccc(Cl)cc2)S1
79.1% (inactive)

Provide only the value of recorded growth for Cc1ccc2c(O)c(O)cc(NC(C)CCCN)c2n1 (centres undefined)
25.7% (inactive)

Identify growth associated with the molecule COc1cc(-c2nn(-c3ccc(NC(=O)Nc4ccc(Cl)c(C(F)(F)F)c4)cc3)cc2-c2ccncc2)ccc1Cl
-3.64% (active)

State, in one line, measured growth of CCCCCCCCCCCC(=O)OC(C)C(=O)Nc1ccccc1 (centres undefined)
97.7% (inactive)

Give a short answer stating reported growth for Cc1ccccc1-n1c(C)nc2cc(NC(=O)c3ccc(Cl)cc3)ccc2c1=O .
77.6% (inactive)

Taken from PubChem BioAssay (NCI).
